Cited source for all entries: PubChem BioAssay (NCI)

# Tested on: T-47D breast
# ASSAY OVERVIEW: NCI tumour cell line growth inhibition, 48 h
OBSERVED PROPERTY: TGI

The cases that follow already have their TGI on record.
Return reported TGI for target or system T-47D breast, item "O=CNc1c(Cl)cc2c(c1Cl)Cc1cc([N+](=O)[O-])ccc1-2" .
> 100 µM

For T-47D breast, give TGI of the listed molecule: "O=C(c1ccc(F)cc1)c1cccc(C(=O)c2ccc(F)cc2)n1"
> 100 µM

Find the measured TGI of "Oc1ccc(-c2nnc3sc(-c4ccc(F)cc4)nn23)cc1" with T-47D breast as test system.
> 100 µM

Consider the record given below.
Enter recorded TGI with T-47D breast for CCC1=CCC23C(=O)C=CC(=O)C2(C1)C(=O)c1cccc(OC)c1C3=O (centres undefined) here.
22.6 µM
